# test-system: Phospho-EGFR (Tyr1068) in H1975 cells (Homo sapiens, UniProt P00533, L858R/T790M)
# Sequence (P00533 25-1210 T790M/L858R): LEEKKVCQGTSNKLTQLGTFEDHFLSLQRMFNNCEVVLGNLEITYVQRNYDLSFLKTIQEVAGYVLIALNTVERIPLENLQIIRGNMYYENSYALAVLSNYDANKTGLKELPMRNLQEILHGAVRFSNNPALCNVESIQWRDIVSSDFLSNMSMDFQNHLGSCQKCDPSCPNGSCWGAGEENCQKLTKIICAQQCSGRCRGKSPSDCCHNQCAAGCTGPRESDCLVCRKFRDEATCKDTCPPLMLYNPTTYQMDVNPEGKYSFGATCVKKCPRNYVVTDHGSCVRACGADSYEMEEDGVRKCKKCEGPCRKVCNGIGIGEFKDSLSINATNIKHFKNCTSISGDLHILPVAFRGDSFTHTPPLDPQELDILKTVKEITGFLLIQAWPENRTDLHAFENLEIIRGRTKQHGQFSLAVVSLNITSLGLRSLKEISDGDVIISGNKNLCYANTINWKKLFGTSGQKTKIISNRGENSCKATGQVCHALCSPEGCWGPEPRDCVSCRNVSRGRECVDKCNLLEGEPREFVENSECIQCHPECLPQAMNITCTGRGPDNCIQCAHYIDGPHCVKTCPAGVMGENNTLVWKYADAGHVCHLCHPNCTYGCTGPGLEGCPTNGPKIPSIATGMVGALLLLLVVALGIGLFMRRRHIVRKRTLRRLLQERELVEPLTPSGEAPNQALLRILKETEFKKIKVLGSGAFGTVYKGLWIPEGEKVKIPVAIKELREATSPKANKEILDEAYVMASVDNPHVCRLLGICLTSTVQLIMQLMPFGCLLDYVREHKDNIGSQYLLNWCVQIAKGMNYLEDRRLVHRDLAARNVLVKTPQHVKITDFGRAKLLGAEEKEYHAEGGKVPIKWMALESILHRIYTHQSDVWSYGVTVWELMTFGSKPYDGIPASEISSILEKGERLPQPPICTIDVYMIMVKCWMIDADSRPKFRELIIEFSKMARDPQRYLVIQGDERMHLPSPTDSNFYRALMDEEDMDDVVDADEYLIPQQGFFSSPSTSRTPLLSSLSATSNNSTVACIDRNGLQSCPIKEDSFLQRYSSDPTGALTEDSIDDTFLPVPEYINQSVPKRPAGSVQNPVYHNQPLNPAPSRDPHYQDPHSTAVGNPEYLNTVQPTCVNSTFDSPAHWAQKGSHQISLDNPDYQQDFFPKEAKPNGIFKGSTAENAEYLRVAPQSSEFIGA
# test: HTRF pEGFR/total EGFR in H1975 cells
# particulars: ratio pEGFR/total EGFR, compound 3 hours

# compound, IC50
rows = [
    ("C#Cc1c(C)c(=O)n2c3nc(ncc13)Nc1cccc(c1)OCCCC2", "> 3000 nM"),
    ("C#Cc1cc(=O)n(-c2ccccc2)c2nc(Nc3cnn(C)c3)ncc12", "1000 to 3000 nM"),
    ("C#Cc1cc(=O)n(-c2ccccc2)c2nc(Nc3ccc(N4CCN(CCO)CC4)cc3)ncc12", "< 500 nM"),
    ("C#Cc1cc(=O)n2c3nc(ncc13)Nc1ccc(N3CCN(C)CC3)c(c1)OCCOCC2", "< 500 nM"),
    ("C#Cc1c(C)c(=O)n(Cc2cccnc2)c2nc(Nc3ccc(N4CCN(C)CC4)cc3)ncc12 [Example 115]", "500 to 1000 nM"),
    ("C#Cc1cc(=O)n(-c2ccccc2)c2nc(Nc3ccc(N4CCN(C5COC5)CC4)cc3)ncc12", "< 500 nM"),
    ("C#Cc1cc(=O)n(-c2ccccc2)c2nc(Nc3ccc(N(C)CCN(C)C)cc3)ncc12", "< 500 nM"),
    ("C#Cc1cc(=O)n2c3nc(ncc13)Nc1ccc(N3CCN(C)CC3)c(c1)C(=O)NCCC2", "> 3000 nM"),
]

Where do the numbers come from? From patent US20260137703A1.
